molecular target: T1, human recombinant CD117 (c-Kit) from Sino Biological (Catalog No. 11996-H08H) (human, UniProt P10721 26-524); experiment: BLI Octet, IgG on anti-human Fc sensor, soluble CD117, 1:1 fit
T1 construct: also called soluble antigen
T1 sequence (P10721 26-524 limits assumed): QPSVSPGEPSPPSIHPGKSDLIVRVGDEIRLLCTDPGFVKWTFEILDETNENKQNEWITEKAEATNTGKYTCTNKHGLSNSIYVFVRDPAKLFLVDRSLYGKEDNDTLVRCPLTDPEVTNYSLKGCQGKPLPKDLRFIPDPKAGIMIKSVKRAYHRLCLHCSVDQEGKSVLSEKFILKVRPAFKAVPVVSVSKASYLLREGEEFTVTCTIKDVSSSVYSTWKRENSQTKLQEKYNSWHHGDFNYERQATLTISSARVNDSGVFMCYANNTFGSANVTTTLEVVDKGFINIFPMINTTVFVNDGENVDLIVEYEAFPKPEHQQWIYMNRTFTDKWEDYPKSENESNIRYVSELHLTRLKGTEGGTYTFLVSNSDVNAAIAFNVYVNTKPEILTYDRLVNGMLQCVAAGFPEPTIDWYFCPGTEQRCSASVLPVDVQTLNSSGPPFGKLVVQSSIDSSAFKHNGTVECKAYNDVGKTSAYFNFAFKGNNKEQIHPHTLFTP
Endpoint: koff

HC2 LC2 (antibody, V domains shown, IgG; also called VH2/VL2) VH: QVQLVESGAEVKKPGASVKLSCKASGYTFTSYNMHWVRQAPGQRLEWMGVIYSGNGDTSYNQKFKGRVTITVDKSASTAYMELSSLRSEDTAVYYCARERDTRFGNWGQGTLVTVSA VL: DIVMTQSPSTLSASVGDRVTITCRASESVDIYGNSFMHWYQQKPGKAPKLLIYLASNLESGVPSRFSGSGSGTEFTLTISSLQPDDFATYYCQQNNEDPYTFGQGTKLEIK; 0.00483 s⁻¹
HC5 LC5 (antibody, V domains shown, IgG; also called VH5/VL5) VH: EVQLVQSGAEVKKPGESLKISCKGSGYTFTSYNMHWVRQMPGKGLEWMGVIYSGNADTSYNQKFKGQVTISADKSISTAYLQWSSLKASDTAMYYCARERDTRFGNWGQGTLVTVSA VL: DIQMTQSPSSLSASVGDRVTITCRASESVDIYGNAFMHWYQQKPGKAPKLLIYLASNLESGVPSRFSGSGSGTDFTLTISSLQPEDFATYYCQQANEEPYTFGGGTKLEIK; 0.0184 s⁻¹
HC3 LC5 (antibody, V domains shown, IgG; also called VH3/VL5) VH: QVQLVQSGAEVRKPGASVKLSCKASGYTFTSYNMHWVRQAPGQGLEWMGVIYSGNGDTSYNQKFKGRVTLTRDTSTSTVYMELSSLRSEDTAVYYCARERDTRFGNWGQGTLVTVSA VL: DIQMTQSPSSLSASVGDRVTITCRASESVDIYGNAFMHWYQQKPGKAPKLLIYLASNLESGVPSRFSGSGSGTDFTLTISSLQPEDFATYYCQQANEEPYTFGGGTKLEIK; 0.0187 s⁻¹
HC2 LC5 (antibody, V domains shown, IgG; also called VH2/VL5) VH: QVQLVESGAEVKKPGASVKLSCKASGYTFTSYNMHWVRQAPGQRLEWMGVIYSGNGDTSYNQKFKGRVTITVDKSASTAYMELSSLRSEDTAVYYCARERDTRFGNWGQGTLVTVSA VL: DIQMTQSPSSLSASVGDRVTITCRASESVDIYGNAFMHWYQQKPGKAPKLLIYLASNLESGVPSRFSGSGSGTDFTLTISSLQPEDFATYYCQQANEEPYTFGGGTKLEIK; 0.0214 s⁻¹
